Tested on: SK-MEL-5 melanoma
assay_text: NCI-60 one-dose screen, 48 h
reported_conditions: 10 µM unless noted
The panel holds about 83,000 compounds, 20% with a hit somewhere; the sample as a whole holds those more often. Activity calls are given as the source filed them. The calls were made as follows: active = growth percent below 10; inactive = the rest.
Write down one outcome, taken from active, inactive

Prompt: Which outcome was entered for the compound `O=C(Nc1ccccc1Cl)c1cnc2ccc(C3CCNCC3)cn12` in this test?
Completion: inactive

Prompt: How about `O[C@@H]1Cc2ccc3ccccc3c2N[C@H](c2ccoc2)C1` ?
Completion: inactive

Prompt: Now consider `COc1cc(NC(=O)c2cc3ccccc3cc2O)c(OC)cc1Cl` and answer again.
Completion: active

Prompt: Another compound to check: `COc1ccc2c(c1)nc(N)c1c3ccccc3cn21`
Completion: inactive

Prompt: Input CC(=O)Oc1c(C)c(OC(C)=O)c2c(c1C(C)=O)OC1CC(=O)C(C(C)=O)=C(O)C21C (configuration not stated)
Completion: inactive

Prompt: Input COc1ccc(C2=NN(C(C)=O)C(c3cc(OC)c(OC)c(OC)c3)C2)cc1 (configuration not stated)
Completion: inactive

Prompt: Please give the result for ClC1C2CC(c3ccccc32)C1Cl (configuration not stated) too.
Completion: inactive

====

System: OVCAR-8 ovarian
assay_text: NCI-60 one-dose screen, 48 h (100 = growth as untreated, 0 = no growth, -100 = all killed)
reported_conditions: 10 µM unless noted
Compounds without any hit were thinned out: in the full panel of roughly 83,000, 20% have a hit. Calls of active or inactive are those of the source. Rule for the calls: active = growth percent below 10; inactive = the rest.
Task for the reader: assign each of the following compounds its reported growth.

Prompt: Find the recorded growth belonging to COc1cc([C@@H]2c3cc4c(cc3C(O[C@@H]3O[C@@H]5CO[C@@H](c6cccs6)OC5[C@H](O)[C@H]3O)C3COC(=O)[C@@H]32)OCO4)cc(OC)c1O (some centres undefined) and report it.
Completion: -43% (active)

Prompt: # iterate: O=C1Nc2ccccc2C12Nc1cc(Cl)ccc1S2 (centres undefined)
Completion: 104% (inactive)

Prompt: Can you handle `Cc1ccccc1-c1cc(Cc2ccccc2O)c(=O)[nH]n1` next?
Completion: 91.8% (inactive)

Prompt: What would you report for `OC(CCC(O)(c1ccccc1)c1ccccc1)(c1ccccc1)c1ccccc1` ?
Completion: 84.7% (inactive)

Prompt: Please do the same for `COC(=O)[C@]12CC[C@@H](C)[C@H](C)[C@@H]1C1=CC[C@@H]3[C@@]4(C)C[C@@H](OC(=O)c5ccco5)[C@H](O)[C@@](C)(CO)[C@@H]4[C@H](O)C[C@@]3(C)[C@]1(C)CC2` as well.
Completion: -76.1% (active)

Prompt: Do the same for `Nc1ccc2c(c1)/C(=N/O)c1cc([N+](=O)[O-])ccc1-2` please
Completion: 87% (inactive)

Prompt: Also check `O=C(Nc1ccc(Cl)cc1)Nc1ccc(Oc2nncc3ccccc23)cc1`
Completion: 19.4% (inactive)

Prompt: Next record, please: `Cc1ccc(NC(=O)Nc2ccc(-c3cccnc3)cc2N2CCC(CO)CC2)cc1`
Completion: 44.2% (inactive)

Prompt: Repeat with CO[C@H]1/C=C/O[C@@]2(C)Oc3c(C)c(O)c4c(O)c(c(/C=N/N5CCN(C)CC5)c(O)c4c3C2=O)NC(=O)/C(C)=C\C=C\C(C)[C@H](O)[C@@H](C)[C@@H](O)[C@@H](C)[C@@H](OC(C)=O)[C@@H]1C (some centres undefined)
Completion: 100% (inactive)

Prompt: Also check `Cn1c(=O)c2c(nc(Br)n2CCC(=O)Nc2ccc(F)cc2)n(C)c1=O`
Completion: 100% (inactive)

Prompt: Also `CCCC[N+](CCCC)=c1ccc2nc3c(C)cc(N(CC)CC)cc3sc-2c1` , if possible.
Completion: 5.84% (active)

Prompt: Likewise for CCOC(=O)C(Cc1ccccc1)(C(=O)OCC)C(Br)C(=O)c1ccccc1 (centres undefined) ?
Completion: 81.4% (inactive)

Prompt: Another compound: COc1cccc(C2C(C#N)=C(N)Oc3cc(OC)ccc32)c1 (centres undefined)
Completion: 3.88% (active)

Prompt: What about `NC(=O)NN=C(C1CC1)C1CC1` ?
Completion: 123% (inactive)

Prompt: // query: CC1=CC(=O)C(C(C)=Nc2ccccc2Cl)C(=O)O1 (centres undefined)
Completion: 96.9% (inactive)

Prompt: For CC(=O)O[C@H]1C(=O)[C@@]2(C)C([C@H](OC(=O)c3ccccc3)[C@]3(O)C[C@H](OC(=O)[C@H](O)[C@@H](NC(=O)c4ccccc4)c4ccccc4)C(C)=C1C3(C)C)[C@]1(OC(C)=O)CO[C@@H]1C[C@@H]2O (some centres undefined) then?
Completion: 26.6% (inactive)

Prompt: Same for `C=CCOc1ccc2c(c1)CC[C@@H]1[C@@H]2CC[C@@]2(C)[C@H]1CC[C@]2(C)O`
Completion: 66.4% (inactive)

Prompt: `COc1cc(/C=C2\COc3ccc(O)c(O)c3C2=O)cc(OC)c1` ?
Completion: 14.6% (inactive)

Prompt: Queued: `O=C(/C(=C/c1cccc([N+](=O)[O-])c1)c1ccccc1)c1ccccc1`
Completion: 13% (inactive)
